biological target: Ba/F3 EGFR L858R/C797S mutants (Homo sapiens, UniProt P00533, C797S/L858R, cells depend on it); test: CellTiter-Glo cell viability, Ba/F3 EGFR L858R/C797S cells; assay type: cell-based, murine; details: 72 hours, read-out: Ba/F3 EGFR mutant cell (IC50, nM) L/C
Sequence (P00533 whole entry C797S/L858R): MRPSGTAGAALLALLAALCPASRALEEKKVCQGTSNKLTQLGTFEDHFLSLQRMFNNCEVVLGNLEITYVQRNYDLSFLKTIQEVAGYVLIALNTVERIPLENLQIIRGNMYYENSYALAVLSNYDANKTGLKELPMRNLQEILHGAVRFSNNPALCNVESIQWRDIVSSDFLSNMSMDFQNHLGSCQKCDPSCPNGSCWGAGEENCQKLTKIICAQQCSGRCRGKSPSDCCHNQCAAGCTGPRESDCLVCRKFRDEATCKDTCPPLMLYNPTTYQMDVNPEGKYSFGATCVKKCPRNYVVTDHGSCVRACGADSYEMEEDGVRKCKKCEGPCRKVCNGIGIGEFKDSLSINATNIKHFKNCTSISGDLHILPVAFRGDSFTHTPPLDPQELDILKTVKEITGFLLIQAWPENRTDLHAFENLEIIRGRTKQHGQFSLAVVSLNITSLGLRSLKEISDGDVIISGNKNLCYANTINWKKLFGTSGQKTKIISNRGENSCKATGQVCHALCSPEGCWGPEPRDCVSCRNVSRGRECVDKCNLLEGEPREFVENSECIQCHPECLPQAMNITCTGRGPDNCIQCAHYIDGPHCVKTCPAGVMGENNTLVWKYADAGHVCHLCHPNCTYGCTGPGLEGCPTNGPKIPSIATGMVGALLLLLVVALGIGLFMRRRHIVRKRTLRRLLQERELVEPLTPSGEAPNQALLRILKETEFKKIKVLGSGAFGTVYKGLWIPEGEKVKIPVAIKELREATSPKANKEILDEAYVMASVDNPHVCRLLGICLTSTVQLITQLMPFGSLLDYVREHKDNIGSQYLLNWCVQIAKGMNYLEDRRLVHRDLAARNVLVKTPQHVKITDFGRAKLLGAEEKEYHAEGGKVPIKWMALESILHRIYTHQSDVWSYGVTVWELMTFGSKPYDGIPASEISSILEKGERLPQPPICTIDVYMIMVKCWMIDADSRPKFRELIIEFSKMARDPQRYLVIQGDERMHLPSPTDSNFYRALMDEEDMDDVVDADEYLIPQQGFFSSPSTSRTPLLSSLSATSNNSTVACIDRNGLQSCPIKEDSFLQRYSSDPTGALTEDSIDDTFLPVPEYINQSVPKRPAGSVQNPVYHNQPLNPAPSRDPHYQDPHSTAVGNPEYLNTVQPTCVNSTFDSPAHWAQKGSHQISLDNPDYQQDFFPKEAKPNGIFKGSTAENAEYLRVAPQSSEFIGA
measurement.kind: GI50 (nM)
The figure you give is taken to be in nM; do not add the unit.

1. COc1cc(N2CCC(N(C)C)CC2)c(C)cc1Nc1ncc(Br)c(Nc2ccc3nccnc3c2N(C)S(C)(=O)=O)n1	98

Ask | Form field: reported GI50 of CCc1cc(Nc2ncc(Cl)c(Nc3ccc4nccnc4c3N(C)S(C)(=O)=O)n2)c(OC)cc1N1CC2(C1)CN(C(C)C)C2
Reply | 35

Ask | And COc1cc(N2CCC(N3CCN(CC(F)F)CC3)CC2)ccc1Nc1ncc(Cl)c(Nc2ccc3nccnc3c2NS(C)(=O)=O)n1 ?
Reply | 451

Ask | Try this compound too: CCCc1cc(Nc2ncc(Cl)c(Nc3cccc(OC)c3NS(C)(=O)=O)n2)c(OC)cc1N1CCC(N2CCOCC2)CC1
Reply | 72

====

molecular target: Ba/F3 EGFR L858R/T790M/C797S mutants (Homo sapiens, UniProt P00533, T790M/C797S/L858R, cells depend on it); assay: CellTiter-Glo cell viability, Ba/F3 EGFR L858R/T790M/C797S cells; type: cell-based, murine; conditions: 72 hours, read-out: Ba/F3 EGFR mutant cell (IC50, nM) L/T/C
measurement.kind: GI50 (nM)
Response body: numeric value in nM, unit text excluded.

1. CCc1cc(Nc2ncc(Br)c(Nc3ccc4nccnc4c3N(C)S(C)(=O)=O)n2)c(OC)cc1N1CCC(N2CC3CCC2CN3C)CC1 (centres unmarked)	28
2. COc1cc(N2CCC(N3CCN(C)C4(CC4)C3)CC2)ccc1Nc1ncc(Cl)c(Nc2ccc3nccnc3c2NS(C)(=O)=O)n1	473

Ask | Which measured GI50 value corresponds to CCc1cc(Nc2ncc(Br)c(Nc3ccc4nccnc4c3N(C)S(C)(=O)=O)n2)c(OC)cc1N1CC2(CCN2C(C)C)C1 ?
Reply | 43

Ask | Now this one: COc1cc(N2CCC(N(C)C)CC2)c(C)cc1Nc1ncc(Br)c(Nc2cccc(OC)c2NS(C)(=O)=O)n1
Reply | 23

====

target: Ba/F3 EGFR Del19/C797S mutants (Homo sapiens, UniProt P00533, C797S, cells depend on it, form not given); assay: CellTiter-Glo cell viability, Ba/F3 EGFR Del19/C797S cells; assay type: cell-based, murine; settings: 72 hours, read-out: Ba/F3 EGFR mutant cell (IC50, nM) D/C
Sequence (P00533 with tags, fused parts or gaps DEL746-750/C797S, form open): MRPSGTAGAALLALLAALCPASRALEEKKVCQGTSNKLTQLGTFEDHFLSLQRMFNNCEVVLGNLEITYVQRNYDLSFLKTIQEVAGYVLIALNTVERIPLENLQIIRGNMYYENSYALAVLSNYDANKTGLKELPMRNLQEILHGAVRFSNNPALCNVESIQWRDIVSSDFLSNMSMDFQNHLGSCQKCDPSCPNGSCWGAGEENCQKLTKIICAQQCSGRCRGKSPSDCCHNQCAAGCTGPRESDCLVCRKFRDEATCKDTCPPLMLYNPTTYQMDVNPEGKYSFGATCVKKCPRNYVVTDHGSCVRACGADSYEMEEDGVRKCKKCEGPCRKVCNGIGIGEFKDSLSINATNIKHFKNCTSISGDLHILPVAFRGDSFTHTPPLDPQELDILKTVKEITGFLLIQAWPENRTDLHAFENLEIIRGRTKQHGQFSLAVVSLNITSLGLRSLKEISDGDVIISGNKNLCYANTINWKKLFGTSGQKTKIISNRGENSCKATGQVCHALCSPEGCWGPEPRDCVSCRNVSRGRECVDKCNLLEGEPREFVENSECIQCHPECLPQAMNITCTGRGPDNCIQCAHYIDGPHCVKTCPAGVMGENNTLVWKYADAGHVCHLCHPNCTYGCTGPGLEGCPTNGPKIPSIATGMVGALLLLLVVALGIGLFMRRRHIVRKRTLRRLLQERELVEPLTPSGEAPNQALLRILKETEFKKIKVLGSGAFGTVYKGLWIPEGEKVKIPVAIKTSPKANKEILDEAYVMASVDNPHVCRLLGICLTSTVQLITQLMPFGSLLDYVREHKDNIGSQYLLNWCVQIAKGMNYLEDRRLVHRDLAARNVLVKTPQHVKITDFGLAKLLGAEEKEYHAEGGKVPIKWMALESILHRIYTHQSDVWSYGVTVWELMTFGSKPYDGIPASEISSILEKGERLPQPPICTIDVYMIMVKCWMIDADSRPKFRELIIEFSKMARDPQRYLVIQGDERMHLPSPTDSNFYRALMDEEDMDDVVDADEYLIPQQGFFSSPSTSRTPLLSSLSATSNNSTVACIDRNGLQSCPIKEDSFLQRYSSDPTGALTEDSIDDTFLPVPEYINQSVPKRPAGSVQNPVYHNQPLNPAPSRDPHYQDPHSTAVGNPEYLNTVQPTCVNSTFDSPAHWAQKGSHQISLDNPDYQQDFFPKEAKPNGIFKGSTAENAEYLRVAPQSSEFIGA
measurement.kind: GI50 (nM)
Express the result in nM but write the number alone.

Answered cases to consult:
1. CCCc1cc(Nc2ncc(Cl)c(Nc3cccc(OC)c3NS(C)(=O)=O)n2)c(OC)cc1N1CCC(N2CCOCC2)CC1	14
2. CCCc1cc(Nc2ncc(Cl)c(Nc3ccc(OC)cc3NS(C)(=O)=O)n2)c(OC)cc1N1CCC(N(C)C)CC1	6

// moving on: another record for GI50
Ask | GET /values?readout=GI50&item= CCc1cc(Nc2ncc(Cl)c(Nc3ccc4nccnc4c3NS(C)(=O)=O)n2)c(OC)cc1N1CCC(N2CCCC2)CC1
Reply | 1

====

molecular target: Ba/F3 EGFR Del19/C797S mutants (Homo sapiens, UniProt P00533, C797S, cells depend on it, form not given); assay: CellTiter-Glo cell viability, Ba/F3 EGFR Del19/C797S cells; type: cell-based, murine; settings: 72 hours, read-out: Ba/F3 EGFR mutant cell (IC50, nM) D/C
measurement.kind: GI50 (nM)
Quick reminder: number only, in nM, skip the unit.

1. CCc1cc(Nc2ncc(Cl)c(Nc3ccc4nccnc4c3NS(C)(=O)=O)n2)c(OC)cc1N1CC2CCC1CN2C(C)C (centres unmarked)	16
2. COc1cc(N2CCNCC2)ccc1Nc1ncc(Cl)c(Nc2ccc3nccnc3c2NS(C)(=O)=O)n1	361
3. COc1cc(N2CCC(N3CCOCC3)CC2)c(C)cc1Nc1ncc(Br)c(Nc2ccc3nccnc3c2NS(C)(=O)=O)n1	51
4. COC(=O)Nc1c(Nc2nc(Nc3ccc(C4CCNCC4)cc3OC)ncc2Cl)ccc2nccnc12	746
5. CCc1cc(Nc2ncc(Br)c(Nc3ccc4nccnc4c3N(C)S(C)(=O)=O)n2)c(OC)cc1N1CCC(N2CC3CCC2CN3C)CC1 (centres unmarked)	6
6. COc1cc(C2CCNCC2)ccc1Nc1ncc(F)c(Nc2ccc3nccnc3c2NS(C)(=O)=O)n1	1250
7. COc1cc(N2CCC(N(C)C)CC2)ccc1Nc1ncc(Br)c(Nc2ccc3nccnc3c2NS(C)(=O)=O)n1	147
8. COc1cc(C2CCN(C)CC2)ccc1Nc1ncc(Cl)c(Nc2ccc3nccnc3c2NS(C)(=O)=O)n1	100
9. COc1cc(N2CCC(N(C)C)CC2)c(C)cc1Nc1ncc(Br)c(Nc2cccc(OC)c2N(C)S(C)(=O)=O)n1	19
10. COc1ccc(Nc2nc(Nc3cc(C)c(N4CCC(N5CCN(C)CC5)CC4)cc3OC)ncc2Cl)c(NS(C)(=O)=O)c1	7

Next, consider the following compound.
Ask | Any idea what GI50 was measured for COc1cc(N2CCC(N3CCN(C)CC3)CC2)c(C)cc1Nc1ncc(C)c(Nc2ccc3nccnc3c2NS(C)(=O)=O)n1 ?
Reply | 23

====

biological target: Ba/F3 EGFR Del19/T790M/C797S mutants (Homo sapiens, UniProt P00533, T790M/C797S, cells depend on it, form not given); experiment: CellTiter-Glo cell viability, Ba/F3 EGFR Del19/T790M/C797S cells; assay type: cell-based, murine; conditions: 72 hours, read-out: Ba/F3 EGFR mutant cell (IC50, nM) D/T/C
Sequence (P00533 with tags, fused parts or gaps DEL746-750/T790M/C797S, form open): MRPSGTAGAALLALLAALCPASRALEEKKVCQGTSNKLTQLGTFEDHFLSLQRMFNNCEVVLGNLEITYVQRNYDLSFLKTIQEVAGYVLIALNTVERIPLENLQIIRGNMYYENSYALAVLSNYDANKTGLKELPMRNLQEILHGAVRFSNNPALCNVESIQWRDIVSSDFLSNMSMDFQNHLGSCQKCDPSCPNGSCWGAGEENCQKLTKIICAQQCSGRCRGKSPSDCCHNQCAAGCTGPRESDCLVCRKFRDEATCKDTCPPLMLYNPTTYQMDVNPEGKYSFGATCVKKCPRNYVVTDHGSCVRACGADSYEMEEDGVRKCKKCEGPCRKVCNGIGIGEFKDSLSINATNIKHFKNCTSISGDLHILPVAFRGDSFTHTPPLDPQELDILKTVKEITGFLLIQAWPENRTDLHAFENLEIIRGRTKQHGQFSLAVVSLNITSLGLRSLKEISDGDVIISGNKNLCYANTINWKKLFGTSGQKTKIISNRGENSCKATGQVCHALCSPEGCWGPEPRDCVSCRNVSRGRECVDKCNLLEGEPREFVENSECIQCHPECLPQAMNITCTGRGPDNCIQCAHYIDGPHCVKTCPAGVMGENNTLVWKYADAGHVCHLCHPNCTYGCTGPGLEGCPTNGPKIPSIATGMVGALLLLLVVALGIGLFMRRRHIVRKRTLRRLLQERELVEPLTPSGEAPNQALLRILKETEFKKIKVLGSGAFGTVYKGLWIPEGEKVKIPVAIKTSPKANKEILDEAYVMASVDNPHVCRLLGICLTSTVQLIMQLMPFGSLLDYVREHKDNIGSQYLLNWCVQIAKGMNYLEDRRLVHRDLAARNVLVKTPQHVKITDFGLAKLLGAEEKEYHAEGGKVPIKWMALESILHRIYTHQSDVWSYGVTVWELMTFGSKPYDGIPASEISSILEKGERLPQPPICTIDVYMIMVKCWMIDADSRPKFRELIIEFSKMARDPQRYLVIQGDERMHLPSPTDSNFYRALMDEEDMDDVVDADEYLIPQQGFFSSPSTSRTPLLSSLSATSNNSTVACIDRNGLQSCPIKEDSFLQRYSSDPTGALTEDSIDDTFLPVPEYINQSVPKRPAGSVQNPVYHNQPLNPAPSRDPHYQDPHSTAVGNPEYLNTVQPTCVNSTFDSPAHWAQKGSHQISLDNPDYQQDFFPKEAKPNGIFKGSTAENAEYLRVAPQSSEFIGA
The recorded GI50 of each item maps onto one of these classes: low: < 8 nM; middle: ≥ 8 nM and < 90 nM; high: ≥ 90 nM

1. CN[C@@H]1CN(c2ccc(Nc3ncc(Cl)c(Nc4ccc5nccnc5c4NS(C)(=O)=O)n3)c(OC)c2)C[C@H]1F	high
2. COc1cc(N2CCNCC2)ccc1Nc1ncc(Cl)c(Nc2ccc3nccnc3c2NS(C)(=O)=O)n1	high
3. COc1cc(N2CCC(N3CCN(C)CC3)CC2)c(C2CC2)cc1Nc1ncc(Cl)c(Nc2ccc3nccnc3c2NS(C)(=O)=O)n1	middle
4. COc1cc(N2CC[C@H](N3CCN(C)CC3)[C@H](F)C2)ccc1Nc1ncc(Cl)c(Nc2ccc3nccnc3c2NS(C)(=O)=O)n1	high
5. COc1ccc(Nc2nc(Nc3cc(C)c(N4CCC(N5CCN(C)CC5)CC4)cc3OC)ncc2Cl)c(NS(C)(=O)=O)c1	low

Ask | Returns: class label. Input: CCc1cc(Nc2ncc(Cl)c(Nc3ccc4nccnc4c3N(C)S(C)(=O)=O)n2)c(OC)cc1N1CCC(N2CCN(C)CC2)CC1
Reply | low

Ask | Entry to check: COc1cc(OC2CNC2)ccc1Nc1ncc(Cl)c(Nc2ccc3nccnc3c2NS(C)(=O)=O)n1
Reply | high

Ask | Moving on to the next compound: CCc1cc(Nc2ncc(Br)c(Nc3ccc4nccnc4c3N(C)S(C)(=O)=O)n2)c(OC)cc1N1CCC(N2CCN(C)CC2)CC1
Reply | low

Ask | Query CCCc1cc(Nc2ncc(Cl)c(Nc3cccc(OC)c3NS(C)(=O)=O)n2)c(OC)cc1N1CCC(N2CCOCC2)CC1 next
Reply | middle

Ask | Next compound up: CCc1cc(Nc2ncc(Br)c(Nc3ccc4nccnc4c3NS(C)(=O)=O)n2)c(OC)cc1N1CCC(N2CCCC2)CC1
Reply | low

Ask | Please give the result for CCc1cc(Nc2ncc(Cl)c(Nc3ccc4c(c3NS(C)(=O)=O)OCCO4)n2)c(OC)cc1N1CCC(N2CCOCC2)CC1 too.
Reply | middle

Ask | Repeat with COc1ccc(Nc2nc(Nc3cc(C)c(N4CCC(N5CCN(C)CC5)CC4)cc3OC)ncc2Br)c(NS(C)(=O)=O)c1
Reply | middle

====

biological target: Ba/F3 EGFR Del19/T790M mutants (Homo sapiens, UniProt P00533, T790M, cells depend on it, form not given); assay: CellTiter-Glo cell viability, Ba/F3 EGFR Del19/T790M cells; type: cell-based, murine; details: 72 hours, read-out: Ba/F3 EGFR mutant cell (IC50, nM) D/T
Sequence (P00533 with tags, fused parts or gaps DEL746-750/T790M, form open): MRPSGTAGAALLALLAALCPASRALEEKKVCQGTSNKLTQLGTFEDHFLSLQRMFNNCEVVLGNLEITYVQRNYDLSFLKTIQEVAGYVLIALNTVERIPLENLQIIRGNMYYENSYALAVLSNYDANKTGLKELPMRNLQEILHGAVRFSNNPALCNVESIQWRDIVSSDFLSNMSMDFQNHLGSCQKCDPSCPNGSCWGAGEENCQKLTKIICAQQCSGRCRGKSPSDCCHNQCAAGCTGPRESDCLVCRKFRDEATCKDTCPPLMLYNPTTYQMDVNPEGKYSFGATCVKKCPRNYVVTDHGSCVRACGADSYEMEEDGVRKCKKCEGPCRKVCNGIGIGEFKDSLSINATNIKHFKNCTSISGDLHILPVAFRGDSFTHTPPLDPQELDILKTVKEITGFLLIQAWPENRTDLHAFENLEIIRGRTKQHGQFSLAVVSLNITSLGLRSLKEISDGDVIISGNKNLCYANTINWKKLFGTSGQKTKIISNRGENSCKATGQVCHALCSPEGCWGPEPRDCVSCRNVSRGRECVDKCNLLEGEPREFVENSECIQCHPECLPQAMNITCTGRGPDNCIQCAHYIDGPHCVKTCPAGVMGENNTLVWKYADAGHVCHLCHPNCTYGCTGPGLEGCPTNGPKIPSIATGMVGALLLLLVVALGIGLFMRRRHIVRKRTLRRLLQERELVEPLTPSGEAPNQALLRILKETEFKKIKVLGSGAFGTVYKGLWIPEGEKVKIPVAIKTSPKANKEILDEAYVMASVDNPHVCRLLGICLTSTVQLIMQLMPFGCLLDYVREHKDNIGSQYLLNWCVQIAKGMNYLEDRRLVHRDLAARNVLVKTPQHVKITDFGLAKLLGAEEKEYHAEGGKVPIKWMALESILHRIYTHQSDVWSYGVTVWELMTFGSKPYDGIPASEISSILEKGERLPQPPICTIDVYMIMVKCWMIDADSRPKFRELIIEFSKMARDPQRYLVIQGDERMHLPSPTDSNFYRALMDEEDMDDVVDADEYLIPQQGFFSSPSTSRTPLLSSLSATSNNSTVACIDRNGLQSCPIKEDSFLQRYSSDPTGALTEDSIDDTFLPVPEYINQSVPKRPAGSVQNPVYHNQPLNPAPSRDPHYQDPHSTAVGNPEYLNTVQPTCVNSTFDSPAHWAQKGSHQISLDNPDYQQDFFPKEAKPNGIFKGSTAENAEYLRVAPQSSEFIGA
Reported values of GI50 for individual entries
Write the answer as a number in nM, unit excluded.

Ask | Fill in the blank: the reported GI50 of COc1cc(C2CCN(C)CC2)ccc1Nc1ncc(Cl)c(Nc2ccc3nccnc3c2NS(C)(=O)=O)n1 is ____.
Reply | 154

Ask | Next up: CCc1cc(Nc2ncc(Cl)c(Nc3ccc4nccnc4c3N(C)S(C)(=O)=O)n2)c(OC)cc1N1CCC(N2CCCC2)CC1
Reply | 8

Ask | Also COc1cc(N2CCNCC2)ccc1Nc1ncc(Cl)c(Nc2cccc(OC)c2NS(C)(=O)=O)n1 , if possible.
Reply | 268

Ask | Also CCS(=O)(=O)Nc1c(Nc2nc(Nc3cc(C)c(N4CCC(N5CCN(C)CC5)CC4)cc3OC)ncc2Br)ccc2nccnc12 ?
Reply | 10

Ask | Let us now turn to COc1cc(N2CCC(N3CCCC3)CC2)c(C)cc1Nc1ncc(Cl)c(Nc2ccc3c(c2NS(C)(=O)=O)OCCO3)n1
Reply | 16

Ask | Next compound: CCCc1cc(Nc2ncc(Br)c(Nc3ccc4nccnc4c3NS(C)(=O)=O)n2)c(OC)cc1N1CCC(N(C)C)CC1
Reply | 13
